Cited source: patent US11884627B2

tested_target: human LPA1 (Homo sapiens, UniProt Q92633)
Construct: expressed in transfected cells; host or cells: CHO-K1
Sequence (Q92633 whole entry): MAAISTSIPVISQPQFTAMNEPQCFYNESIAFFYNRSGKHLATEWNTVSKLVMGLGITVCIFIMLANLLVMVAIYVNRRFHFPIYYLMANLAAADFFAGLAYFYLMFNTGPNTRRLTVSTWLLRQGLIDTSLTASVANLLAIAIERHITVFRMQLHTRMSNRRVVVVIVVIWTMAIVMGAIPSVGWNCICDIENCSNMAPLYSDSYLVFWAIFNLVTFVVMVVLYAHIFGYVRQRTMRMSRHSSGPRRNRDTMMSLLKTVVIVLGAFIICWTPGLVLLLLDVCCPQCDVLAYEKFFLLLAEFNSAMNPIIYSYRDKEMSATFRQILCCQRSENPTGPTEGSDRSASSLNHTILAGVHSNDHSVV
protocol_notes: In vitro LPA1 calcium flux antagonist assay - Bioduro protocol
Assay type: cell-based
condition_summary: Table B3; CHO-K1 cells overexpressing human LPA1 and G15a, LPA challenge at EC80; read-out: Activity (IC50 class)
List of IC50 values.
value_type: IC50

• COc1cc(OC2CC2)cc(-c2ccc(NC3(C(=O)O)CCOCC3)cc2COC2CCCC2)c1 = < 100 nM
• CCOc1cccc(-c2ccc(NC3(C(=O)O)CCOCC3)cc2COC2CCCC2)c1C(F)F = < 100 nM
• COc1cc(OC)cc(-c2c(C)cc(NC3(C(=O)O)Cc4ccccc4C3)cc2COC2CCCC2)c1 = > 1000 nM
• CCOc1cncc(-c2ccc(NC3(C(=O)O)CCOCC3)cc2COCCC(C)C)c1C(F)F = < 100 nM
• CCOc1cc(OC)cc(-c2ccc(NC3(C(=O)O)CCC(F)(F)CC3)cc2COC2CC2)c1F = < 100 nM
• COc1cc(-c2ccc(NC3(C(=O)O)CCOCC3)c(F)c2COC2CCCC2)c(F)c(OC)c1C = < 100 nM
• O=C(O)C1(Nc2ccc(-c3cccc(OC4CCC4)c3F)c(COC3CC3)c2)CCOCC1 = < 100 nM
• O=C(O)C1(Nc2ccc(-c3cccc(OC4CC4)c3C(F)F)c(COC3CC3)c2)CC1 = < 100 nM

---

tested_target: human LPA1 (Homo sapiens, UniProt Q92633)
Construct: expressed in transfected cells; host or cells: CHO-K1
protocol_notes: In vitro LPA1 calcium flux antagonist assay - Bioduro protocol
Type: cell-based
condition_summary: CHO-K1 cells overexpressing human LPA1 and G15a; LPA challenge at EC80; calcium mobilization on FLIPR Tetra; read-out: IC50
The label is Yes for IC50 below 30 nM and No for IC50 equal to or exceeding 30 nM.

- COc1cc2c(c(-c3ccc(NC4(C(=O)O)CCOCC4)cc3COC3CCCC3)c1)CCO2 [Compound 198]: No
- COc1cc(OC)c(F)c(-c2ccc(NC3(C(=O)O)CCOCC3)cc2CCC2CCCC2)c1 [Compound 228]: Yes
- CCOc1cncc(-c2ccc(NC3(C(=O)O)CCC(F)(F)CC3)cc2COC2CC2)c1C(F)F [Compound 406]: Yes
- COc1cc(OC)cc(-c2ccc(NC3(C(=O)O)CCOCC3)cc2CCN2CCCC2=O)c1 [Compound 202]: No
- CCOc1cccc(-c2ccc(NC3(C(=O)O)CCOCC3)cc2COC2CC2)c1C(F)(F)F [Compound 358]: Yes
- COc1cc(-c2ccc(NC3(C(=O)O)CCOCC3)cc2COC2CC2)c(Cl)c(OC)c1C [Compound 293]: Yes
- COc1cc(-c2ccc(NC3(C(=O)O)CCOCC3)cc2COC2CCCC2)c(F)c(OC)c1C(C)O (stereo not shown) [Compound 299]: No
- COc1cc(C2CC2)cc(-c2ccc(NC3(C(=O)O)CCOCC3)cc2COC2CCCC2)c1F [Compound 251]: No
- COc1cc(-c2ccc(NC3(C(=O)O)CCOCC3)cc2COC2CC3CC3C2)cc(OC)c1C (stereo not shown) [Compound 182]: Yes
- CCCCOCc1cc(NC2(C(=O)O)CCOCC2)ccc1-c1cc(OC)cc(OCC)c1F [Compound 390]: Yes
- COc1cc(-c2c(COC3CCCC3)cc(NC3(C(=O)O)CCOCC3)cc2C(F)F)cc(OC)c1C [Compound 273]: Yes
- CCOc1cccc(-c2ccc(OC3(C(=O)O)CCOCC3)cc2COC2CC2)c1C(F)F [Compound 371]: Yes
- CCOc1cc(-c2ccc(OC3(C(=O)O)CCOCC3)cc2COC2CCCC2)cc(OC)c1C [Compound 379]: No
